The following compounds are shown together with reported Relative activity values.
- Test system: recombinant β-galactoside-α2,6-sialyltransferase N1C0
- ASSAY INFO: Sugar acceptor substrate specificity (sialic acid transfer to monosaccharides/disaccharides)
- Format: biochemical, Photobacterium leiognathi strain JT-SHIZ-119
- Set-up: concentration or dose not given beside the values
- MEASUREMENT CONDITIONS: sialyltransferase activity represented by 100 for lactose

COMPOUND	TGT	Relative activity
CC(=O)N[C@H]1C(O)O[C@H](CO)[C@H](O)[C@@H]1O (stereo partly drawn) [N-Acetylgalactosamine, N-acetylgalactosamine]	recombinant β-galactoside-α2,6-sialyltransferase N1C0	10%
CO[C@@H]1O[C@H](CO)[C@H](O)[C@H](O)[C@H]1O [Methyl-β-D-galactopyranoside, methyl-β-D-galactopyranoside]	recombinant β-galactoside-α2,6-sialyltransferase N1C0	38%
CO[C@@H]1O[C@H](CO)[C@@H](O)[C@H](O)[C@@H]1O [Methyl-β-D-mannopyranoside, methyl-β-D-mannopyranoside]	recombinant β-galactoside-α2,6-sialyltransferase N1C0	1%

###

- Tested on: recombinant β-galactoside-α2,6-sialyltransferase N1C0
- ASSAY INFO: Sugar acceptor substrate specificity (sialic acid transfer to monosaccharides/disaccharides)
- Format: biochemical, Photobacterium leiognathi strain JT-SHIZ-119
- Set-up: concentration or dose not given beside the values
- MEASUREMENT CONDITIONS: sialyltransferase activity represented by 100 for lactose

MOLECULE	Relative activity, %
CO[C@H]1O[C@H](CO)[C@H](O)[C@H](O)[C@H]1O [Methyl-α-D-galactopyranoside, methyl-α-D-galactopyranoside]	1
CC(=O)N[C@H]1C(O)O[C@H](CO)[C@H](O)[C@@H]1O[C@@H]1O[C@H](CO)[C@H](O)[C@H](O)[C@H]1O (stereo partly drawn) [Gal-β1,3-GalNAc]	58
OC[C@H]1O[C@@H](O[C@H]2[C@H](O)[C@@H](O)C(O)O[C@@H]2CO)[C@H](O)[C@@H](O)[C@H]1O (stereo partly shown) [Lactose, lactose]	100
CC(=O)N[C@H]1C(O)O[C@H](CO)[C@@H](O[C@@H]2O[C@H](CO)[C@H](O)[C@H](O)[C@H]2O)[C@@H]1O (stereo partly shown) [N-Acetyllactosamine, N-acetyllactosamine]	103

###

- Tested on: recombinant β-galactoside-α2,6-sialyltransferase N1C0
- ASSAY INFO: Sugar acceptor substrate specificity (sialic acid transfer to monosaccharides/disaccharides)
- Assay type: biochemical, Photobacterium leiognathi strain JT-SHIZ-119
- MEASUREMENT CONDITIONS: purified enzyme; substance used as sugar acceptor substrate
# label = 1.0 if Transferred NeuAc < 2 nmol/min else 0.0

COMPOUND	LABEL
OC[C@H]1O[C@@H](O[C@H]2[C@H](O)[C@@H](O)C(O)O[C@@H]2CO)[C@H](O)[C@@H](O)[C@H]1O (some centres unmarked)	0.0
CO[C@@H]1O[C@H](CO)[C@H](O)[C@H](O)[C@H]1O [Methyl-β-D-galactopyranoside, methyl-β-D-galactopyranoside]	1.0
CO[C@@H]1O[C@H](CO)[C@@H](O)[C@H](O)[C@H]1O [Methyl-β-D-glucopyranoside, methyl-β-D-glucopyranoside]	1.0
CC(=O)N[C@H]1C(O)O[C@H](CO)[C@H](O)[C@@H]1O (some centres unmarked)	1.0
CC(=O)N[C@H]1C(O)O[C@H](CO)[C@H](O)[C@@H]1O[C@@H]1O[C@H](CO)[C@H](O)[C@H](O)[C@H]1O (some centres unmarked)	1.0
CO[C@H]1O[C@H](CO)[C@H](O)[C@H](O)[C@H]1O [Methyl-α-D-galactopyranoside, methyl-α-D-galactopyranoside]	1.0
CC(=O)N[C@H]1C(O)O[C@H](CO)[C@@H](O)[C@@H]1O (some centres unmarked)	1.0
CO[C@H]1O[C@H](CO)[C@@H](O)[C@H](O)[C@@H]1O [Methyl-α-D-mannopyranoside, methyl-α-D-mannopyranoside]	1.0
CO[C@@H]1O[C@H](CO)[C@@H](O)[C@H](O)[C@@H]1O [Methyl-β-D-mannopyranoside, methyl-β-D-mannopyranoside]	1.0
CO[C@H]1O[C@H](CO)[C@@H](O)[C@H](O)[C@H]1O [Methyl-α-D-glucopyranoside, methyl-α-D-glucopyranoside]	1.0
CC(=O)N[C@H]1C(O)O[C@H](CO)[C@@H](O[C@@H]2O[C@H](CO)[C@H](O)[C@H](O)[C@H]2O)[C@@H]1O (some centres unmarked)	0.0

# credit: patent US20120184016A1
